assay: RP, Thermo Scientific Acclaim RSLC 120 C18, 100 × 2.1 mm, 2.2 µm, 30 °C, 0.2 mL/min, estimated dead time 1.1 min; A: 90% water + 10% methanol + 0.01% formic acid + 5 mM ammonium formate, pH 3.61; B: methanol + 0.01% formic acid + 5 mM ammonium formate, pH 3.61; gradient (min/%B) 0/1 1/1 2/39 13/99.9 15/99.9 15.1/1 20.1/1
experimental-conditions: stereoisomer not certain
readout-type: LC retention time (min)
Give bare numbers, in min.

Batch lookup, LC retention time per entry.
1. O=C(O)CCCn1cc(C(=O)c2cccc3ccccc23)c2ccccc21
2. CN1C(C(=O)Nc2ccccn2)=C(O)c2ccccc2S1(=O)=O
3. COc1ccc2c3c1OC1C(=O)CCC4(O)C(C2)NCCC314 (centres undefined)
4. CS(=O)(=O)NC(=O)c1cc(Oc2ccc(C(F)(F)F)cc2Cl)ccc1[N+](=O)[O-]
5. CCNC1C2CCC(C2)C1c1ccccc1 (centres undefined)
6. CN1CCCC(n2nc(Cc3ccc(Cl)cc3)c3ccccc3c2=O)CC1 (centres undefined)

Outgoing:
[9.33, 6.84, 3.71, 9.01, 6.08, 7.59]

Batch lookup, LC retention time per entry.
1. OC(CCN1CCCCC1)(c1ccccc1)C1CCCCC1 (centres undefined) [Trihexyphenidyl. Benzhexol]
2. CCC(C(=O)c1ccc2c(c1)OCO2)N(C)C (centres undefined)
3. COc1ccc(N)cc1N

Outgoing:
1. 7.86
2. 4.38
3. 2.37

----------
assay: RP, Thermo Scientific Acclaim RSLC 120 C18, 100 × 2.1 mm, 2.2 µm, 30 °C, 0.2 mL/min, estimated dead time 1.1 min; A: 90% water + 10% methanol + 0.01% formic acid + 5 mM ammonium formate, pH 3.61; B: methanol + 0.01% formic acid + 5 mM ammonium formate, pH 3.61; gradient (min/%B) 0/1 1/1 2/39 13/99.9 15/99.9 15.1/1 20.1/1
experimental-conditions: stereoisomer not certain
// bucketize LC retention time: bin 0: < 7 min; bin 1: ≥ 7 min and < 10 min; bin 2: ≥ 10 min

# compound, class-name
data = [
    ("CCCCC1(COC(=O)CCC(=O)O)C(=O)N(c2ccccc2)N(c2ccccc2)C1=O", "bin 1"),
    ("COc1ccc(C(=O)c2cn(CCCCCO)c3ccccc23)cc1", "bin 1"),
    ("COc1ccc(CNc2nc(N3CCCC3CO)ncc2C(=O)NCc2ncccn2)cc1Cl (centres undefined)", "bin 1"),
    ("CC(F)CCCn1cc(C(=O)C2C(C)(C)C2(C)C)c2ccccc21 (stereo not drawn) [XLR-11 Isomer]", "bin 2"),
    ("CC=C1N(C)C(C)CC1(c1ccccc1)c1ccccc1 (centres undefined)", "bin 0"),
    ("CC1Cc2ccccc2N1NC(=O)c1ccc(Cl)c(S(N)(=O)=O)c1 (centres undefined) [Indapamide]", "bin 0"),
    ("Cc1nc2n(c(=O)c1CCN1CCC(c3noc4cc(F)ccc34)CC1)CCCC2", "bin 0"),
    ("CC(C)=CC1C(C(=O)OCc2coc(Cc3ccccc3)c2)C1(C)C (centres undefined)", "bin 2"),
]

Incoming: GET /class?item= CC1N=C(c2ccccc2Cl)c2cc([N+](=O)[O-])ccc2NC1=O (centres undefined)
Outgoing: bin 1

Incoming: GET /class?item= COc1ccc2[nH]cc(CC(C)N)c2c1 (centres undefined)
Outgoing: bin 0

Incoming: GET /class?item= CCN(CC)C(=O)SCc1ccc(Cl)cc1
Outgoing: bin 2

Incoming: GET /class?item= Cc1ccc(N)c(C)c1 [Dimethylaniline (2.4-) (Metabolite Amitraz)]
Outgoing: bin 0
